Could you please report measured TGI for the items listed next?
Test system: M14 melanoma
assay name: NCI tumour cell line growth inhibition, 48 h

Worked set:
[
  {
    "compound": "O=C1O[C@@H](c2ccccc2)C[C@H]1CN1CCOCC1",
    "TGI": "> 100 µM"
  },
  {
    "compound": "COC(=O)CCC1=NOC(CC2CC(CCC(=O)OC)=NO2)C1 (stereo not given)",
    "TGI": "> 100 µM"
  },
  {
    "compound": "CC1=C(C(=O)OCc2ccncc2)C(C2=C(C)SCCS2)C(C(=O)OCc2ccncc2)=C(C)N1",
    "TGI": "71 µM"
  },
  {
    "compound": "CN(C)c1ccc(Nc2ncnc3ccccc23)cc1",
    "TGI": "> 100 µM"
  },
  {
    "compound": "CNC(=O)C(CCc1ccccc1)NC(=O)C(CC(=O)NO)CC(C)C (stereo not given)",
    "TGI": "> 25 µM"
  },
  {
    "compound": "COC(=O)C1(NC(=O)C(CC(=O)OCc2ccccc2)NC(=O)OCc2ccccc2)CCCCCCC1 (stereo not given)",
    "TGI": "> 100 µM"
  },
  {
    "compound": "Cc1ccc(/C(=N/NS(=O)(=O)c2ccc([N+](=O)[O-])cc2)Sc2cc(Cl)c(C)cc2S(N)(=O)=O)cc1",
    "TGI": "> 100 µM"
  },
  {
    "compound": "N#Cc1c(-c2ccc(Cl)cc2)csc1NC(=O)Nc1ccc(Cl)c(C(F)(F)F)c1",
    "TGI": "8.35 µM"
  }
]

For every listed record, write down its TGI.
1. O=C1C=CC(=O)c2c(O)c(N3CCN(c4ccccn4)CC3)c(Cl)c(O)c21
2. CCC1CC(C)C(O)/C=C/C=C/CC(C)OC(=O)CC(O)C(OC)C1OC1OC(C)CC(O)(C(C)=O)C1O (stereo not given)
3. O=C(Nc1ccc(-n2cc(-c3ccncc3)c(-c3ccc(O)c(Cl)c3)n2)cc1)c1cc(C(F)(F)F)cc(C(F)(F)F)c1
4. Oc1ccc(Nc2nc3ccccc3c3occc23)cc1
5. CC1(C)CCC2(CC1)N[C@@H](C(=O)N[C@@H]1CC[C@@H](C(N)=O)OC1)[C@H](c1ccnc(Cl)c1F)[C@]21C(=O)Nc2cc(Cl)ccc21
6. CCc1c(-c2ccc(OC)cc2)c(=O)oc2cc(O)ccc12
7. CCOC(=O)C1(Cc2ccc3c(c2)CCC3)Cc2cc3c(cc2C1=O)CCC3 (stereo not given)

["2.85 µM", "> 100 µM", "9.58 µM", "34.6 µM", "5.63 µM", "56.8 µM", "> 100 µM"]

For every listed record, write down its TGI.
1. COC(=O)C1Cc2c([nH]c3ccccc23)C(C2CCCCC2)N1 (stereo not given)
2. C=CCc1cc(OC)c2c(c1)C(OC(C)=O)CC(c1ccc(OC)c(OC)c1)O2 (stereo not given)

> 100 µM
> 100 µM

---

Test system: SK-OV-3 ovarian
assay name: NCI tumour cell line growth inhibition, 48 h
reported property: TGI

[
  {
    "molecule": "COc1ccc(/C=C/C(=O)C(C)(C)C)cc1OC",
    "test target": "SK-OV-3 ovarian",
    "TGI": "> 100 µM"
  }
]

For every listed record, write down its TGI.
1. CC(CCOc1c2ccoc2cc2oc(=O)ccc12)C1=CC(=O)C(C)(C)O1 (stereo not given)
2. O=C(Nc1c(Cl)cccc1Cl)c1c(Cl)c(Cl)c(Cl)c(Cl)c1-c1nc2ccccc2[nH]1
3. COc1ccc(-c2c(-c3cc(OC)c(OC)c(OC)c3)nc3sc(C4CC4)nn23)cc1OC
4. O=C1NC(=O)/C(=C/c2c(Cl)nc3sccn23)S1

["> 100 µM", "> 100 µM", "69 µM", "> 100 µM"]

Each recorded value in this set is attributed to PubChem BioAssay (NCI).
